test system: HS 578T breast; assay: NCI-60 one-dose screen, 48 h (100 = growth as untreated, 0 = no growth, -100 = all killed); settings: 10 µM unless noted
Compounds without any hit were thinned out: in the full panel of roughly 83,000, 20% have a hit. The source made the active and inactive calls. Rule for the calls: active = growth percent below 10; inactive = the rest.
MEASUREMENT_NAME: growth

MOLECULE | MEASUREMENT_NAME | EXPERIMENTAL_RESULT
O=C(Nc1ccccc1)c1sc(-c2ccccc2)cc1O | growth | 92% (inactive)
O=C(O)CCCc1cnc2c3sccc3nc(SCc3c(Cl)cccc3Cl)n12 | growth | 39.5% (inactive)
CCN(CC)CCCC(C)Nc1ccc2cc(OC)ccc2n1 (stereo unspecified) | growth | 99.9% (inactive)
C#CC#CC#CC#CC#CC#CC#CC#CCC1OCC(COC(=O)O[C@@H](C(=O)O[C@H]2C[C@@]3(O)[C@@H](OC(=O)c4ccccc4)[C@@H]4[C@]5(OC(C)=O)CO[C@@H]5C[C@H](O)[C@@]4(C)C(=O)[C@H](OC(C)=O)C(=C2C)C3(C)C)[C@@H](NC(=O)c2ccccc2)c2ccccc2)O1 (stereo partly specified) | growth | -4.44% (active)
CCOC(=O)c1c(-c2ccc(Cl)cc2)c(C#N)c2c(C#N)c(N)nn2c1N | growth | 75.3% (inactive)

Any idea what growth was measured for `O=c1oc2c(cnc3ccccc32)cc1-c1cccs1` ?
99% (inactive)

Report growth for `CCCCCCCC/C=C\CCCCCCCCOc1ccccc1CC(=O)NCC[N+]1(C)CCCCC1` please.
77.2% (inactive)

Please give the measured growth for this molecule: `CC(C)CSc1oc(-c2ccccc2)nc1S(=O)(=O)c1ccccc1`
96.6% (inactive)

Given the molecule `FC(F)(F)c1[nH]ncc1-c1nc2c(N3CCCCC3)cc3[nH]ncc3c2c2c1CCCC2` , what is its reported growth?
-11.8% (active)

State the recorded growth for this entry: COc1ccc(C2=NN(C(C)=O)C(c3ccc(Oc4ccnc5cc(Cl)ccc45)c(OC)c3)C2)cc1 (stereo unspecified)
58.9% (inactive)

====

test system: U251 CNS; experiment: NCI-60 one-dose screen, 48 h (100 = growth as untreated, 0 = no growth, -100 = all killed); settings: 10 µM unless noted
The panel holds about 83,000 compounds, 20% with a hit somewhere; the sample as a whole holds those more often.
growth less than 90% is class 1; growth greater than or equal to 90% is class 0.

Use the examples below as a reference point.
COMPOUND | TARGET_OR_TEST_SYSTEM | ANSWER_LABEL
O=c1oc2c(cnc3ccccc32)cc1-c1cccs1 | U251 CNS | class 0
COC(=O)C1=C(C(=O)Nc2cccnc2)C2OC1(C(Cc1ccccc1)Oc1ccccc1)C1OC21 (stereo not given) | U251 CNS | class 0
Cc1ccc2[nH]c(=O)c3c(c2c1)OC(N)=C(C#N)C31C(=O)c2cccc3cccc1c23 (stereo not given) | U251 CNS | class 0

Please turn your attention to the following entry.
# strict comparison: is reported growth < 90%? input = CCn1cc(C(=O)N/N=C/c2ccc(Br)cc2)c(=O)c2cc(F)c(N3CCNC(C)C3)c(F)c21 (stereo not given)
class 1

====

Test system: MCF7 breast
Assay: NCI-60 one-dose screen, 48 h (100 = growth as untreated, 0 = no growth, -100 = all killed)
Details: 10 µM unless noted
Procedure: Growth inhibition of the MCF7 human tumor cell line is measured as a screen for anti-cancer activity. Cells are grown in 96 well plates and exposed to the test compound for 48 hours. Compounds are tested at a single concentration, which is 10^-5 M for most compounds. The reported endpoint is percent growth (GI% or GIPRCNT), where numbers from 0 - 100% represent growth inhibition, and numbers from -100% - 0 represent cell death. For example, a value of 40 represents 60% growth inhibition. […]
Compounds without any hit were thinned out: in the full panel of roughly 83,000, 20% have a hit.
Short version: growth at least 20% is Met, less is Not met.

Example cases with answers are listed next.
COMPOUND | ANSWER_LABEL
NC(=O)c1c(NC(=O)c2ccc(Cl)cc2)sc2c1CCC(=O)C2 | Met
O=C1NC(=C(Cl)Cl)/C(=N/S(=O)(=O)NCCc2c[nH]c3ccccc23)N1 | Not met
COc1cc2c(cc1O)[C@@]1(C)[C@H](c3ccccc3Br)OC(=O)N1CC2 | Met

Test whether the compound `CC/C=C1/C(=O)C=C[C@@H]1C/C=C\CCCC(=O)OC` records growth of 20% or higher.
Not met

Does growth meet or surpass 20% for COc1ccc(C2CC(c3ccc(Nc4nc(Nc5ccc(F)cc5)nc(Nc5ccc(F)cc5)n4)cc3)=NN2C(C)=O)cc1 (stereo not given) ?
Met

====

test system: EKVX NSCLC; experiment: NCI-60 one-dose screen, 48 h; details: 10 µM unless noted
The panel holds about 83,000 compounds, 20% with a hit somewhere; the sample as a whole holds those more often. Calls of active or inactive are those of the source. How the source made its calls: active means growth percent below 10; inactive means the rest.
Your reply should match one of these outcome classes. active, inactive

Worked examples follow.
COMPOUND | ANSWER_LABEL
COC(=O)c1c2c(n3ccc(C)cc13)C(=O)c1ccccc1C2=O | inactive
COc1ccc(OC)c(Nc2nnc(-c3ccc(Cl)cc3)o2)c1 | inactive
CCCCCCCCn1ccc2cc(NC(=O)Cn3cc(CN4CCCCCC4)nn3)ccc21 | inactive
Cn1cc(-c2nn3cc(-c4ccccc4)nc3s2)c2ccccc21 | inactive

Field: outcome | Entry: `CC(C)(C)C(=O)/C=C/c1ccc([N+](=O)[O-])cc1`
inactive

I'd appreciate the recorded outcome for COc1ccc(NC(=O)c2cccc(C3CCc4c(cc(OC)c(OC)c4OC)O3)c2)cc1 (stereo not given) from this test.
inactive

====

system: IGROV1 ovarian; assay: NCI-60 one-dose screen, 48 h (100 = growth as untreated, 0 = no growth, -100 = all killed); details: 10 µM unless noted
The panel holds about 83,000 compounds, 20% with a hit somewhere; the sample as a whole holds those more often.
MEASUREMENT_NAME: growth (%)
Give the number; % is assumed, so skip it.

COMPOUND | growth, %
COc1cccc(/C=C/C(=O)c2cc3c(N)c(C(=O)Nc4cccc(Cl)c4C)sc3nc2C)c1 | -18.7
COc1ccc(/C=C/C(=O)c2ccc(Nc3nc(Nc4ccc(F)cc4)nc(Nc4ccc(Cl)cc4)n3)cc2)cc1 | 81.2
O=C(/C=C/C12c3ccccc3C(c3ccccc31)C1C(=O)NC(=O)C12)c1ccccn1 (stereo not given) | -12.3
COc1ccc(-c2cc(-c3ccc(OC)cc3)nc(NCCCNc3ccnc4cc(Cl)ccc34)n2)cc1 | -62.6
COc1cc(C(=O)/C=C/c2c(-c3cccs3)nc3ccccn23)cc(OC)c1OC | 13.1

Name the reported growth value associated with the compound `NC(=O)c1c(NC(=O)c2ccc(Cl)cc2)sc2c1CCC(=O)C2`
52.6

Give the measured growth of `Cc1cc(C(=O)Nc2cc(Nc3ncccc3-c3ncnc4nc[nH]c34)ccc2F)cc(C(F)(F)F)c1` .
103

// lookup growth for `C=C1C(=O)O[C@H]2[C@H]1CC/C(Cn1cc(-c3cc(C(F)(F)F)cc(C(F)(F)F)c3)nn1)=C\CC[C@@]1(C)O[C@@H]21`
-78.6

I have this compound here, C#CC#CC#CC#CC#CC#CC#CC#CCC1OCC(COC(=O)O[C@@H](C(=O)O[C@H]2C[C@@]3(O)[C@@H](OC(=O)c4ccccc4)[C@@H]4[C@]5(OC(C)=O)CO[C@@H]5C[C@H](O)[C@@]4(C)C(=O)[C@H](OC(C)=O)C(=C2C)C3(C)C)[C@@H](NC(=O)c2ccccc2)c2ccccc2)O1 (stereo not given in full) , and I need its recorded growth.
22.2

Requested field: growth. Item: `C[C@@H]1CC[C@@]2(OC1)O[C@H]1C[C@H]3[C@@H]4CC=C5C[C@@H](O[C@@H]6O[C@H](CO)[C@@H](O[C@@H]7O[C@@H](CO)[C@H](O)[C@H]7O)[C@H](O)[C@H]6O[C@@H]6O[C@@H](C)[C@H](O)[C@@H](O)[C@H]6O)CC[C@]5(C)[C@H]4CC[C@]3(C)[C@H]1[C@@H]2C`
-84.2

Fill in: growth of `Cn1c(/C=C/[N+](=O)[O-])cc2ccccc21` is ___
0.609

What value of growth has been reported for the following compound? O=c1[nH]cnc2c1C(c1ccc(Br)cc1)c1sc3c(F)cccc3c1O2 (stereo not given)
84.4

Recorded growth for `Cc1cccc(NC(=O)CSc2nc3ccc([N+](=O)[O-])cc3[nH]2)c1` , please?
87.4

Looking for the measured growth of `COc1ccc(/C(C)=C(\c2ccc(Cl)cc2)c2ccc(OCCN3CCCC3)cc2)cc1` , can you help?
48.9

Which growth is reported for this compound? `CNCc1cccc2c1OCCOCCN(C)C(=O)CN(C)S(=O)(=O)c1ccc(cc1)-c1cnc(N)c(n1)C(=O)N2`
51.4
